Known 293T-LentiX WEE1-ePL Degradation 4 hr (Ymin) of a selection of compounds
biological target: WEE1 (Homo sapiens, UniProt P30291+Q96SW2); construct: C-terminal ePL-tagged (DiscoverX, Fremont, CA) full-length WEE1 expression construct; expressed in transfected cells; host or cells: LentiX-HEK293T (Invitrogen), lentiviral transduction; co-expressing GSPT1-GN (G576N, lacking the first 158 amino acids); test: WEE1-ePL degradation assay (LentiX-WEE1-ePL-GSPT1-ND cells, InCELL Hunter luminescence, 4 h); type: cell-based; conditions: 293T-LentiX WEE1-ePL cells, lower limit of the fit (0 = luciferase inhibitor, Ymax = DMSO control)
Sequence (P30291 whole entry): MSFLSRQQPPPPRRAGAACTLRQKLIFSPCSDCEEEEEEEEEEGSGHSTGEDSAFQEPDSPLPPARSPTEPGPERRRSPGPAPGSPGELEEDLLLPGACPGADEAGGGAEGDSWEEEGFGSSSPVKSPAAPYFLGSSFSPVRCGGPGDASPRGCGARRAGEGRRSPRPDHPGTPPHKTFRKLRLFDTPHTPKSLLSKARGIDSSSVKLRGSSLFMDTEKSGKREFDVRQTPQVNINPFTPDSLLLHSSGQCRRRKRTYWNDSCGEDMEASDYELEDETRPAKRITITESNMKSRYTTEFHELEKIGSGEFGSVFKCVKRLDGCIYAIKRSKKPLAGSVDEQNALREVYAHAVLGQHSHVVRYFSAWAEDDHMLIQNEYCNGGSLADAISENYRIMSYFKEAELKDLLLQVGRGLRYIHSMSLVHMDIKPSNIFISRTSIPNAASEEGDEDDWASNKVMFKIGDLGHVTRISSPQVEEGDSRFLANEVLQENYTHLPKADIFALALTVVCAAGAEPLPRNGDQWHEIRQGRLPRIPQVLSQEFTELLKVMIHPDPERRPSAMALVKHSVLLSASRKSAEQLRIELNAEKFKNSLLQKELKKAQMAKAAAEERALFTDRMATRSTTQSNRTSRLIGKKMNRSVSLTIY
Sequence (Q96SW2 whole entry): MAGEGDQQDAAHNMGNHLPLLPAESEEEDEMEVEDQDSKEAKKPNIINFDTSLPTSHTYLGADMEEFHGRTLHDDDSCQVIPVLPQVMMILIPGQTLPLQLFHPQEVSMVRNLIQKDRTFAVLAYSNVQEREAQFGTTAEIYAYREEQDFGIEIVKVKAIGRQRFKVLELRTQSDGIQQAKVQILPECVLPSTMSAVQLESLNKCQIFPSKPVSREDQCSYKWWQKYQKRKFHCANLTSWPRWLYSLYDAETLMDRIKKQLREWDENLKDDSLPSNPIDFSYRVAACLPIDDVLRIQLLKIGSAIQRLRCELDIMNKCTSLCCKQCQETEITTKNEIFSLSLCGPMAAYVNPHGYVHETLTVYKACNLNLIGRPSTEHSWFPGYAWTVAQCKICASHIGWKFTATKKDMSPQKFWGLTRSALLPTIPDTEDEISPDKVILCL
Sequence (Q16531 whole entry partner): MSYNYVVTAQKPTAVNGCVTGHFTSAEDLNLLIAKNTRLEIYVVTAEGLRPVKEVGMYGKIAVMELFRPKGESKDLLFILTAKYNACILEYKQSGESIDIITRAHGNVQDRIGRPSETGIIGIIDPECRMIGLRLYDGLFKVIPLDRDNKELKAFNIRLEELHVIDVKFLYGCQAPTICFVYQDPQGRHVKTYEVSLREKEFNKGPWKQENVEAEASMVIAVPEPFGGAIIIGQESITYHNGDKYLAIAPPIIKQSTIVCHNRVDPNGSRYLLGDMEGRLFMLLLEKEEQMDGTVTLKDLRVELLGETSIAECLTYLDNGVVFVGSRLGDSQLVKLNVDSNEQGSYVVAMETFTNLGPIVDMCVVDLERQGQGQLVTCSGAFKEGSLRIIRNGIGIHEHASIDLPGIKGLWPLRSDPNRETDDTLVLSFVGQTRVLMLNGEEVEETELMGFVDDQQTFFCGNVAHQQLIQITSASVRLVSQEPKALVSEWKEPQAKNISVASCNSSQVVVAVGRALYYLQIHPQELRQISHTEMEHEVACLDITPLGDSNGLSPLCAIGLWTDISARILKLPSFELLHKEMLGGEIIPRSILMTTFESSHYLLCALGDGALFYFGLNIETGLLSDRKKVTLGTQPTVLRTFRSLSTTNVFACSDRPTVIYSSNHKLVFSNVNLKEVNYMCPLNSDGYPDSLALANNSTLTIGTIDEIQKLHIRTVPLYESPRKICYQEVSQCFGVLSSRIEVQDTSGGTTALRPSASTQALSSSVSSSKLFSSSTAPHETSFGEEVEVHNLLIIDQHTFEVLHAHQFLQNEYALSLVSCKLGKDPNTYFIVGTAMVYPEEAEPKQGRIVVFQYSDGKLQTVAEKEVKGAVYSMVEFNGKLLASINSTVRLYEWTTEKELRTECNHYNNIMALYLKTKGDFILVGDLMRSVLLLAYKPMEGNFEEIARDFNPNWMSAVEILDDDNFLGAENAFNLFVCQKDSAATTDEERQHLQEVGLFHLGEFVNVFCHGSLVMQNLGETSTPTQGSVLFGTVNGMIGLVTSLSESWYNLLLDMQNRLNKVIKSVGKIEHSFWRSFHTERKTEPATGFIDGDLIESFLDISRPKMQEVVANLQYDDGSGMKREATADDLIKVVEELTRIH
quantity: 293T-LentiX WEE1-ePL Degradation 4 hr (Ymin)

>  <compound>
O=C1CCC(N2Cc3cc(O[C@H]4CCN(Cc5ccc6nc(CF)ccc6c5)C4)ccc3C2=O)C(=O)N1 (some centres unmarked)

>  <measured number>
26.21

$$$$
>  <compound>
Cc1cc(CN2CC[C@H](Oc3ccc4c(c3)CN(C3CCC(=O)NC3=O)C4=O)C2)cnc1C (some centres unmarked)

>  <measured number>
35.675

$$$$
>  <compound>
CN1CCc2c(cncc2CN2CC[C@H](Oc3ccc4c(c3)CN(C3CCC(=O)NC3=O)C4=O)C2)C1 (some centres unmarked)

>  <measured number>
68

$$$$
>  <compound>
CC#Cc1ccc2cc(CN3CC[C@H](Oc4ccc5c(c4)CN(C4CCC(=O)NC4=O)C5=O)C3)ccc2n1 (some centres unmarked)

>  <measured number>
29.33

$$$$
>  <compound>
O=C1CCC(N2Cc3cc(O[C@H]4CCN(Cc5ccnc(-c6ccccc6)c5)C4)ccc3C2=O)C(=O)N1 (some centres unmarked)

>  <measured number>
38

$$$$
>  <compound>
O=C1CCC(N2Cc3ccc(O[C@H]4CCN(Cc5ccc6cnccc6c5)C4)cc3C2=O)C(=O)N1 (some centres unmarked)

>  <measured number>
80.095

$$$$
>  <compound>
O=C1CCC(N2Cc3cc(O[C@H]4CCN(Cc5ccc6nc(CC(F)F)ccc6c5)C4)ccc3C2=O)C(=O)N1 (some centres unmarked)

>  <measured number>
43.5

$$$$
>  <compound>
O=C1CCC(N2Cc3cc(O[C@H]4CCN(Cc5ccc6nc(N7C[C@H]8C[C@@H]7CO8)ncc6c5)C4)ccc3C2=O)C(=O)N1 (some centres unmarked)

>  <measured number>
39

$$$$
>  <compound>
O=C1CCC(N2Cc3cc(O[C@H]4CCN(Cc5ccc6nc([C@H]7C[C@@H](O)C7)ccc6c5)C4)ccc3C2=O)C(=O)N1 (some centres unmarked)

>  <measured number>
31

$$$$
>  <compound>
N#Cc1cnc2ccc(CN3CC[C@H](Oc4ccc5c(c4)CN(C4CCC(=O)NC4=O)C5=O)C3)cc2c1 (some centres unmarked)

>  <measured number>
33

$$$$
>  <compound>
O=C1CCC(N2Cc3cc(O[C@H]4CCN(Cc5ccc6nc([C@@H]7CCCOC7)ccc6c5)C4)ccc3C2=O)C(=O)N1 (some centres unmarked)

>  <measured number>
32

$$$$
>  <compound>
O=C1CCC(N2Cc3cc(O[C@H]4CCN(Cc5ccc6nc(Oc7ccccn7)ccc6c5)C4)ccc3C2=O)C(=O)N1 (some centres unmarked)

>  <measured number>
35

$$$$
>  <compound>
O=C1CCC(N2Cc3cc(O[C@H]4CCN(Cc5ccc6cnccc6n5)C4)ccc3C2=O)C(=O)N1 (some centres unmarked)

>  <measured number>
42.7

$$$$
>  <compound>
O=C1CCC(N2Cc3cc(O[C@H]4CCN(Cc5ccc6nc([C@H]7CC[C@@H](O)C7)ccc6c5)C4)ccc3C2=O)C(=O)N1 (some centres unmarked)

>  <measured number>
31

$$$$
>  <compound>
CO[C@@H]1CC[C@@H](c2ccc3cc(CN4CC[C@H](Oc5ccc6c(c5)CN(C5CCC(=O)NC5=O)C6=O)C4)ccc3n2)C1 (some centres unmarked)

>  <measured number>
30

$$$$
>  <compound>
O=C1CCC(N2Cc3cc(O[C@H]4CCN(Cc5ccc6nc(N7CCC(O)CC7)ccc6c5)C4)ccc3C2=O)C(=O)N1 (some centres unmarked)

>  <measured number>
34.5

$$$$
>  <compound>
COCc1cnc2ccc(CN3CC[C@H](Oc4ccc5c(c4)CN(C4CCC(=O)NC4=O)C5=O)C3)cc2c1 (some centres unmarked)

>  <measured number>
33

$$$$
>  <compound>
O=C1CCC(N2Cc3cc(O[C@H]4CCN(Cc5ccc6cnccc6c5)C4)ccc3C2=O)C(=O)N1 (some centres unmarked)

>  <measured number>
25.71

$$$$
>  <compound>
Cc1ccc2cc(CN3CC[C@H](Oc4ccc5c(c4)CN(C4CCC(=O)NC4=O)C5=O)C3)ncc2c1 (some centres unmarked)

>  <measured number>
32.315

$$$$
>  <compound>
O=C1CCC(N2Cc3cc(O[C@H]4CCN(Cc5ccc6ncc(C(F)(F)F)cc6c5)C4)ccc3C2=O)C(=O)N1 (some centres unmarked)

>  <measured number>
32

$$$$
>  <compound>
O=C1CC[C@H](N2Cc3cc(O[C@H]4CCN(Cc5ccc6nc(N7CCOCC7)ccc6c5)C4)ccc3C2=O)C(=O)N1

>  <measured number>
34.59

$$$$
>  <compound>
O=C1CCC(N2Cc3cc(O[C@H]4CCN(Cc5cc6c(F)cccc6cn5)C4)ccc3C2=O)C(=O)N1 (some centres unmarked)

>  <measured number>
43.45

$$$$
>  <compound>
O=C1CCC(N2Cc3cc(O[C@H]4CCN(Cc5ccc6cccnc6c5)C4)ccc3C2=O)C(=O)N1 (some centres unmarked)

>  <measured number>
57

$$$$
>  <compound>
CN1C(=O)COc2ccc(CN3CC[C@H](Oc4ccc5c(c4)CN(C4CCC(=O)NC4=O)C5=O)C3)cc21 (some centres unmarked)

>  <measured number>
56

$$$$
>  <compound>
O=C1CCC(N2Cc3cc(O[C@H]4CCN(Cc5cnc6ccccn56)C4)ccc3C2=O)C(=O)N1 (some centres unmarked)

>  <measured number>
33.52

$$$$
>  <compound>
O=C1CCC(N2Cc3cc(O[C@H]4CCN(Cc5ccc6nc(N7C[C@H]8C[C@@H]7CO8)ccc6c5)C4)ccc3C2=O)C(=O)N1 (some centres unmarked)

>  <measured number>
33

$$$$
>  <compound>
Cc1ccc2ncc(CN3CC[C@H](Oc4ccc5c(c4)CN(C4CCC(=O)NC4=O)C5=O)C3)cc2c1 (some centres unmarked)

>  <measured number>
29.6

$$$$
>  <compound>
O=C1CCC(N2Cc3cc(O[C@H]4CCN(Cc5ccc6ncccc6c5)C4)ccc3C2=O)C(=O)N1 (some centres unmarked)

>  <measured number>
28.66

$$$$
>  <compound>
Cc1ccc2cc(CN3CC[C@H](Oc4ccc5c(c4)CN(C4(C)CCC(=O)NC4=O)C5=O)C3)ccc2n1 (some centres unmarked)

>  <measured number>
69.05

$$$$
>  <compound>
O=C1CCC(N2Cc3cc(O[C@H]4CCN(Cc5ccc6nc(N7CCS(=O)(=O)CC7)ncc6c5)C4)ccc3C2=O)C(=O)N1 (some centres unmarked)

>  <measured number>
42

$$$$
>  <compound>
CO[C@@H]1CCC[C@H](c2ccc3cc(CN4CC[C@H](Oc5ccc6c(c5)CN(C5CCC(=O)NC5=O)C6=O)C4)ccc3n2)C1 (some centres unmarked)

>  <measured number>
32

$$$$
>  <compound>
CN1CC(=O)Oc2cc(CN3CC[C@H](Oc4ccc5c(c4)CN(C4CCC(=O)NC4=O)C5=O)C3)ccc21 (some centres unmarked)

>  <measured number>
52

$$$$
